// molecules with Ki on Muscarinic acetylcholine receptor M4 (Homo sapiens, UniProt P08173), multi-source literature
Sequence (P08173 whole entry): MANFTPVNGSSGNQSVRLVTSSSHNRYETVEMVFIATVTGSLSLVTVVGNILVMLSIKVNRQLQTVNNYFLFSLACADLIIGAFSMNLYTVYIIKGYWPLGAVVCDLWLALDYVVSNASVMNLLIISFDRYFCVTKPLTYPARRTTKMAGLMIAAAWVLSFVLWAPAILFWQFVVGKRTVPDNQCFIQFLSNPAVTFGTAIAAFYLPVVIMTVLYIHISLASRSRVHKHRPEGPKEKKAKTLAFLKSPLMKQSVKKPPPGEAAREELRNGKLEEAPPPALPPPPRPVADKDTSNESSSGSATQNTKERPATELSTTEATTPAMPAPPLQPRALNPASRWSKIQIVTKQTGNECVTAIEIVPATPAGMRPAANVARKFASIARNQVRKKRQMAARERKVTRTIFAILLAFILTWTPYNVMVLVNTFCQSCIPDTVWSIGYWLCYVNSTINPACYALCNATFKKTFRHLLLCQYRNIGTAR

// for each molecule below, give its Ki
1. C[C@@H]1CN(c2ncc(OCCO)cn2)C[C@H](C)N1C(=O)OC1CC2(C1)CN(Cc1ccccc1)C2
2. COc1ccccc1CNCCCCCCNCCCCCCCCNCCCCCCNCc1ccccc1OC
3. C[C@@H]1CN(c2ncc(S(=O)(=O)C(F)F)cn2)C[C@H](C)N1C(=O)OC1CC2(C1)CN(Cc1ccccc1)C2
4. N[C@H](CCS(=O)O)C(=O)O
5. NC(CSSCC(N)C(=O)O)C(=O)O (centres undefined)
6. N[C@@H](CS)C(=O)O

> 0.5 µM
0.038 µM
< 0.1 µM
> 10 µM
> 10 µM
> 10 µM

Each molecule below has a recorded value; state its Ki.
1. NC(CS(=O)O)C(=O)O (centres undefined)
2. CSCC[C@@H](N)C(=O)O
3. CN(C)CCON=C(C=Cc1ccc(O)cc1)c1ccccc1F

1. > 10 µM
2. > 10 µM
3. 3.67 µM
